Collected Ki values appear next to each entry.
Biological target: human recombinant 5-HT2C receptor (Homo sapiens, UniProt P28335)
Sequence (P28335 33-458): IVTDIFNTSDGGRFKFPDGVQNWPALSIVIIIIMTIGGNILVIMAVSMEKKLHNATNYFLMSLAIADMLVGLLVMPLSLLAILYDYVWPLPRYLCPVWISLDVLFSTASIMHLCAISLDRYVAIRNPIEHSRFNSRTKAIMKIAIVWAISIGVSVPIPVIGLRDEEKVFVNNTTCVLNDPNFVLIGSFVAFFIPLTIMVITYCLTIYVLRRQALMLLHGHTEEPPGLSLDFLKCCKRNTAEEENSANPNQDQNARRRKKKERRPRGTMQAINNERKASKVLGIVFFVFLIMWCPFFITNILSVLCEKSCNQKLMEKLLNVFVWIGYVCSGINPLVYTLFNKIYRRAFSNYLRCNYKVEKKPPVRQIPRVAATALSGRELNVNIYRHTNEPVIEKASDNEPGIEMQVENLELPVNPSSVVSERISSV
Assay: 5-HT2C receptor radioligand binding ([3H]mesulergine, CHO membranes)
Provide only the numeric value, understood in nM.

Sample records with Ki:
compound	Ki, nM
CC(C)n1nc2c(c1-c1ccc(C#N)cc1)CCNCC2	425
Cc1ccc(-c2c3c(nn2C2CCCC2)CCNCC3)cc1	10
CCn1nc2c(c1-c1ccc(C)cc1)CCNCC2	170
CC(C)n1nc2c(c1-c1ccc([N+](=O)[O-])cc1)CCNCC2	625
Fc1ccc(Cn2nc(-c3ccc(Cl)cc3)c3c2CCNCC3)c(F)c1	800

Record `Cc1cccc(Cn2nc(-c3ccc(Cl)cc3)c3c2CCNCC3)c1` . Reported Ki: 180

Record `c1ccc(-c2c3c(nn2C2CCCC2)CCNCC3)cc1` . Reported Ki: 12

Record `Fc1ccc(-c2c3c(nn2C2CCCC2)CCNCC3)cc1` . Reported Ki: 18

Record Cc1ccc(-c2c3c(nn2C2CCCC2)CC(C)NCC3)cc1 (centres unmarked) . Reported Ki: 30

Record `CCC(CC)Cn1nc(-c2ccc(Cl)cc2)c2c1CCNCC2` . Reported Ki: 400

----------
Target: human recombinant 5-HT2C receptor (Homo sapiens, UniProt P28335)
Experiment: 5-HT2C receptor radioligand binding ([3H]mesulergine, CHO membranes);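 further: competitive displacement of the tritiated ligand, using membranes from CHO cells stably transfected with the human receptor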
Details: read-out: Ki 5-HT2C; h5-HT2C in CHO membranes, [3H]mesulergine
Collected Ki values appear next to each entry.
Provide only the numeric value, understood in nM.

Sample records with Ki:
compound	property.measured	unit.spec	observed.measurement
c1ccc(-c2c3c(nn2C2CCC2)CCNCC3)cc1 [Example 276]	Ki	nM	90
Fc1ccc(-c2c3c(nn2C2CC2)CCNCC3)cc1 [Example 282]	Ki	nM	200
COc1ccc(-c2c3c(nn2C(C)C)CCNCC3)cc1 [Example 242]	Ki	nM	45
CC(C)n1nc2c(c1-c1ccc(C(F)(F)F)cc1)CCNCC2 [Example 213]	Ki	nM	80
Cc1ccc(-c2c3c(nn2C(C)C)CCNCC3)cc1 [Example 209]	Ki	nM	12

Next item in the queue.
Record CC(C)n1nc2c(c1-c1ccc(Cl)cc1)CCNCC2 [Example 211] . Reported Ki: 18

----------
Collected pKi values appear next to each entry.
Target: 5-HT2A receptor (UniProt P28223)
Assay: 5-HT2A receptor radioligand binding ([3H]ketanserin);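 further: competitive displacement binding on membranes, either from rat cerebral cortex or from NIH3T3 cells stably expressing human 5-HT2A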
Details: read-out: Ki 5-HT2A, table does not say whether rat cortex or human recombinant (NIH3T3) receptor
Please treat pKi as minus the base-10 logarithm of the molar concentration.

Sample records with pKi:
compound	property.measured	observed.measurement
c1ccc(-c2c3c(nn2C2CCCC2)CCNCC3)cc1	pKi	8.82
CC1CNCCc2c1nn(C(C)C)c2-c1ccc(F)cc1 (centres unmarked)	pKi	9.00
Fc1ccc(-c2c3c(nn2C2CC2)CCNCC3)cc1	pKi	8.22
CC(C)n1nc2c(c1-c1ccc(C(F)(F)F)cc1)CCNCC2	pKi	8.12
Cc1cccc(Cn2nc(-c3ccc(Cl)cc3)c3c2CCNCC3)c1	pKi	7.00

// compound `COc1ccc(-c2c3c(nn2C2CCCC2)CCNCC3)cc1` , assay 5-HT2A receptor (UniProt P28223), pKi value: 8.89

// compound `CN1CCc2c(-c3ccc(Cl)cc3)nn(Cc3ccccc3)c2CC1` , assay 5-HT2A receptor (UniProt P28223), pKi value: 7.00

// compound `Cc1ccc(-c2c3c(nn2C2CC2)CCNCC3)cc1` , assay 5-HT2A receptor (UniProt P28223), pKi value: 9.00

// compound `CC(C)n1nc2c(c1-c1ccc(F)cc1)CCNCC2` , assay 5-HT2A receptor (UniProt P28223), pKi value: 8.00

// compound `Fc1ccc(-c2nn(Cc3ccccc3)c3c2CCNCC3)cc1` , assay 5-HT2A receptor (UniProt P28223), pKi value: 8.05
